# TEST DESCRIPTION: bioavailability of dextromethorphan after nasal, oral and intravenous administration (plasma levels, spectrofluorophotometric)
# Type: in vivo, female beagle dogs
# RUN CONDITIONS: dog, plasma, 15 mg, nasal, dog #2, 3 min, HBr salt 15 mg/dog
MEASURED ATTRIBUTE: concentration at 0.05 h (ng/mL)
Numbers only, in ng/mL.

Tell me the measured concentration at 0.05 h of COc1ccc2c(c1)[C@]13CCCC[C@@H]1[C@H](C2)N(C)CC3 [dextromethorphan, d-3-methoxy-N-methylmorphinan] , please. 793

* * *

# TEST DESCRIPTION: bioavailability of dextromethorphan after nasal, oral and intravenous administration (plasma levels, spectrofluorophotometric)
# Assay type: in vivo, female beagle dogs
# RUN CONDITIONS: dog, plasma, iv, 15 mg, dog #3, 12 min, HBr salt 15 mg/dog
MEASURED ATTRIBUTE: concentration at 0.2 h (ng/mL)
Give bare numbers, in ng/mL.

Tell me the measured concentration at 0.2 h of COc1ccc2c(c1)[C@]13CCCC[C@@H]1[C@H](C2)N(C)CC3 [dextromethorphan, d-3-methoxy-N-methylmorphinan] , please. 322

* * *

# TEST DESCRIPTION: bioavailability of dextromethorphan after nasal, oral and intravenous administration (plasma levels, spectrofluorophotometric)
# Format: in vivo, female beagle dogs
# RUN CONDITIONS: dog, plasma, 15 mg, nasal, dog #1, 3 min, HBr salt 15 mg/dog
MEASURED ATTRIBUTE: concentration at 0.05 h
Numeric answer plus unit only.

Tell me the measured concentration at 0.05 h of "COc1ccc2c(c1)[C@]13CCCC[C@@H]1[C@H](C2)N(C)CC3" , please. 323 ng/mL

* * *

# TEST DESCRIPTION: bioavailability of dextromethorphan after nasal, oral and intravenous administration (plasma levels, spectrofluorophotometric)
# Assay type: in vivo, female beagle dogs
# RUN CONDITIONS: dog, plasma, 15 mg, nasal, individual dogs, 15 mg/dog; read-out: AUC 0-120 min., Individual AUC (converted)
MEASURED ATTRIBUTE: AUC(0-t) at 2 h (ng·h/mL)
One number for each entry, in ng·h/mL.

Tell me the measured AUC(0-t) at 2 h of "COc1ccc2c(c1)[C@]13CCCC[C@@H]1[C@H](C2)N(C)CC3" , please. 568

* * *

# TEST DESCRIPTION: bioavailability of dextromethorphan after nasal, oral and intravenous administration (plasma levels, spectrofluorophotometric)
# Format: in vivo, female beagle dogs
# RUN CONDITIONS: dog, plasma, iv, 15 mg, dog #3, 20 min, HBr salt 15 mg/dog
MEASURED ATTRIBUTE: concentration at 20 min (ng/mL)
Numbers only, in ng/mL.

Tell me the measured concentration at 20 min of "COc1ccc2c(c1)[C@]13CCCC[C@@H]1[C@H](C2)N(C)CC3" , please. 187

* * *

# TEST DESCRIPTION: bioavailability of dextromethorphan after nasal, oral and intravenous administration (plasma levels, spectrofluorophotometric)
# Type: in vivo, female beagle dogs
# RUN CONDITIONS: dog, plasma, po, 15 mg, dog #1, 180 min, HBr salt 15 mg/dog
MEASURED ATTRIBUTE: concentration at 3 h

Tell me the measured concentration at 3 h of COc1ccc2c(c1)[C@]13CCCC[C@@H]1[C@H](C2)N(C)CC3 [dextromethorphan, d-3-methoxy-N-methylmorphinan] , please. 63.3 ng/mL

* * *

# TEST DESCRIPTION: bioavailability of dextromethorphan after nasal, oral and intravenous administration (plasma levels, spectrofluorophotometric)
# Format: in vivo, female beagle dogs
# RUN CONDITIONS: dog, plasma, po, 15 mg, dog #1, 120 min, HBr salt 15 mg/dog
MEASURED ATTRIBUTE: concentration at 2 h (ng/mL)
Answers are plain numbers, in ng/mL.

Tell me the measured concentration at 2 h of COc1ccc2c(c1)[C@]13CCCC[C@@H]1[C@H](C2)N(C)CC3 [dextromethorphan, d-3-methoxy-N-methylmorphinan] , please. 74.7

* * *

# TEST DESCRIPTION: bioavailability of dextromethorphan after nasal, oral and intravenous administration (plasma levels, spectrofluorophotometric)
# Assay type: in vivo, female beagle dogs
# RUN CONDITIONS: dog, plasma, iv, 15 mg, dog #2, 80 min, HBr salt 15 mg/dog
MEASURED ATTRIBUTE: concentration at 80 min (ng/mL)
Give bare numbers, in ng/mL.

Tell me the measured concentration at 80 min of "COc1ccc2c(c1)[C@]13CCCC[C@@H]1[C@H](C2)N(C)CC3" , please. 165

* * *

# TEST DESCRIPTION: bioavailability of dextromethorphan after nasal, oral and intravenous administration (plasma levels, spectrofluorophotometric)
# Assay type: in vivo, female beagle dogs
# RUN CONDITIONS: dog, plasma, po, 15 mg, dog #2, 120 min, HBr salt 15 mg/dog
MEASURED ATTRIBUTE: concentration at 2 h (ng/mL)
Give bare numbers, in ng/mL.

Tell me the measured concentration at 2 h of "COc1ccc2c(c1)[C@]13CCCC[C@@H]1[C@H](C2)N(C)CC3" , please. 86

* * *

# TEST DESCRIPTION: bioavailability of dextromethorphan after nasal, oral and intravenous administration (plasma levels, spectrofluorophotometric)
# Format: in vivo, female beagle dogs
# RUN CONDITIONS: dog, plasma, 15 mg, nasal, dog #2, 80 min, HBr salt 15 mg/dog
MEASURED ATTRIBUTE: concentration at 80 min (µg/mL)
Answers are plain numbers, in µg/mL.

Tell me the measured concentration at 80 min of COc1ccc2c(c1)[C@]13CCCC[C@@H]1[C@H](C2)N(C)CC3 [dextromethorphan, d-3-methoxy-N-methylmorphinan] , please. 0.183

* * *

# TEST DESCRIPTION: bioavailability of dextromethorphan after nasal, oral and intravenous administration (plasma levels, spectrofluorophotometric)
# Assay type: in vivo, female beagle dogs
# RUN CONDITIONS: dog, plasma, iv, 15 mg, dog #1, 1 min, HBr salt 15 mg/dog
# Description: The following study was undertaken to determine the bioavailability of dextromethorphan from nasal solution in comparison with the bioavailability of the drug when administered orally and intravenously. Three female beagle dogs weighing about 10 kg each were used for the study without fasting. […] After nasal, oral, and intravenous administration, blood was sampled from the cubital vein periodically. The blood sample, was centrifuged and 2.5 ml of plasma were analyzed. […]
MEASURED ATTRIBUTE: concentration at 1 min (ng/mL)
Numbers only, in ng/mL.

Tell me the measured concentration at 1 min of "COc1ccc2c(c1)[C@]13CCCC[C@@H]1[C@H](C2)N(C)CC3" , please. 1530

* * *

# TEST DESCRIPTION: bioavailability of dextromethorphan after nasal, oral and intravenous administration (plasma levels, spectrofluorophotometric)
# Format: in vivo, female beagle dogs
# RUN CONDITIONS: dog, plasma, iv, 15 mg, dog #1, 6 min, HBr salt 15 mg/dog
MEASURED ATTRIBUTE: concentration at 0.1 h (ng/mL)
Give bare numbers, in ng/mL.

Tell me the measured concentration at 0.1 h of COc1ccc2c(c1)[C@]13CCCC[C@@H]1[C@H](C2)N(C)CC3 [dextromethorphan, d-3-methoxy-N-methylmorphinan] , please. 708

* * *

# TEST DESCRIPTION: bioavailability of dextromethorphan after nasal, oral and intravenous administration (plasma levels, spectrofluorophotometric)
# Assay type: in vivo, female beagle dogs
# RUN CONDITIONS: dog, plasma, 15 mg, nasal, dog #3, 120 min, HBr salt 15 mg/dog
MEASURED ATTRIBUTE: concentration at 2 h (ng/mL)
Give bare numbers, in ng/mL.

Tell me the measured concentration at 2 h of "COc1ccc2c(c1)[C@]13CCCC[C@@H]1[C@H](C2)N(C)CC3" , please. 108

* * *

# TEST DESCRIPTION: bioavailability of dextromethorphan after nasal, oral and intravenous administration (plasma levels, spectrofluorophotometric)
# Type: in vivo, female beagle dogs
# RUN CONDITIONS: dog, plasma, 15 mg, nasal, dog #2, 35 min, HBr salt 15 mg/dog
MEASURED ATTRIBUTE: concentration at 35 min (ng/mL)
Numbers only, in ng/mL.

Tell me the measured concentration at 35 min of "COc1ccc2c(c1)[C@]13CCCC[C@@H]1[C@H](C2)N(C)CC3" , please. 201

* * *

# TEST DESCRIPTION: bioavailability of dextromethorphan after nasal, oral and intravenous administration (plasma levels, spectrofluorophotometric)
# Type: in vivo, female beagle dogs
# RUN CONDITIONS: dog, plasma, 15 mg, nasal, dog #3, 35 min, HBr salt 15 mg/dog
MEASURED ATTRIBUTE: concentration at 35 min (ng/mL)
Answers are plain numbers, in ng/mL.

Tell me the measured concentration at 35 min of COc1ccc2c(c1)[C@]13CCCC[C@@H]1[C@H](C2)N(C)CC3 [dextromethorphan, d-3-methoxy-N-methylmorphinan] , please. 165

* * *

# TEST DESCRIPTION: bioavailability of dextromethorphan after nasal, oral and intravenous administration (plasma levels, spectrofluorophotometric)
# Assay type: in vivo, female beagle dogs
# RUN CONDITIONS: dog, plasma, iv, 15 mg, dog #2, 35 min, HBr salt 15 mg/dog
MEASURED ATTRIBUTE: concentration at 35 min (ng/mL)
Numbers only, in ng/mL.

Tell me the measured concentration at 35 min of COc1ccc2c(c1)[C@]13CCCC[C@@H]1[C@H](C2)N(C)CC3 [dextromethorphan, d-3-methoxy-N-methylmorphinan] , please. 166
